# test_target: Hexose transporter 1 (Plasmodium falciparum) (UniProt O97467)
# assay_procedure: ST_JUDE_LEISH: Cytotoxicity at 2uM final concentration against transgenic Leishmania Mexicana promastigotes LmPfHT that are glucose transport deficient and complemented with the Plasmodium falciparum hexose transporter. Activity is measured by DNA content using SYBR green in vitro
# Format: functional
measured_quantity: inhibition (%)
State just the number; it will be interpreted in %.

Query :: State the measured inhibition (Hexose transporter 1 (Plasmodium falciparum) (UniProt O97467)) of `CCC(C)(C)c1ccc(OCCCC(=O)Nc2ccc(Cl)c([N+](=O)[O-])c2)c(C(C)(C)CC)c1`
Result :: 0.79

Query :: // output inhibition; input `COc1ccc2oc(=O)c(C#N)c(O)c2c1` ; system Hexose transporter 1 (Plasmodium falciparum) (UniProt O97467)
Result :: -0.32

Query :: Enter inhibition (test system Hexose transporter 1 (Plasmodium falciparum) (UniProt O97467)) for `N#Cc1ccc(-c2ccc(C(=O)NC3CCN(CCN4CCc5c(cccc5C(F)(F)F)C4)CC3)cc2)cc1`
Result :: -0.02

Query :: Report measured inhibition on Hexose transporter 1 (Plasmodium falciparum) (UniProt O97467); entry: `Cc1cc(O)c(-c2cc(C(=O)Nc3cccnc3)[nH]n2)cc1C`
Result :: 4.46

Query :: Enter measured inhibition, system Hexose transporter 1 (Plasmodium falciparum) (UniProt O97467), for the compound shown: `CN1CCC(COc2ccc(CN3CCC(NC(=O)c4cccc(Cl)c4)CC3)cc2)CC1`
Result :: 3.13

Query :: GET inhibition where system = Hexose transporter 1 (Plasmodium falciparum) (UniProt O97467) and item = `Cc1cc(-c2cccc(CNC3CCN(C)CC3)c2)ccc1S(=O)(=O)NCc1ccccc1`
Result :: 3.65

Query :: State inhibition on Hexose transporter 1 (Plasmodium falciparum) (UniProt O97467). Entry: `c1ccc(CCNc2ccnc(Nc3ccc4[nH]nnc4c3)n2)cc1`
Result :: 13.9

Query :: With Hexose transporter 1 (Plasmodium falciparum) (UniProt O97467) as the test system, provide measured inhibition for this compound: `COc1ccc(-c2cccc(NC(=O)c3cccc(C#N)c3)c2)cc1CNC(C)C`
Result :: 8.42

Query :: GET inhibition | system: Hexose transporter 1 (Plasmodium falciparum) (UniProt O97467) | item: `COCCn1c(-c2nc(-c3ccc(F)cc3)cnc2N)nc2ccccc21`
Result :: -2.08

Query :: For Hexose transporter 1 (Plasmodium falciparum) (UniProt O97467), give the measured inhibition of the entry `O=C(NCCCCN1CCC(c2ccc([N+](=O)[O-])cc2)CC1)c1ccc(NC(=O)c2ccc(Cl)cc2)cc1`
Result :: 1.35

Query :: # return inhibition of `CN(C)Cc1ccc2cc(NC(=O)c3ccc(-c4ccc(Cl)cc4)cc3)ccc2c1` (system: Hexose transporter 1 (Plasmodium falciparum) (UniProt O97467))
Result :: 3.04

Query :: Param request: inhibition | system Hexose transporter 1 (Plasmodium falciparum) (UniProt O97467) | item `Nc1ncnc2cc(-c3cccc(NC(=O)Nc4ccccc4)c3)sc12`
Result :: 2.18

Query :: Provide the reported inhibition (system: Hexose transporter 1 (Plasmodium falciparum) (UniProt O97467)) for `CC(C)(C)OC(=O)N[C@@H](CS(=O)(=O)CCNC(=N)COCc1ccccc1)C(=O)OC(C)(C)C`
Result :: 6.29

Query :: Would you please give the reported inhibition of `CCN(CC)CCN(Cc1ccc(-c2ccc(C(F)(F)F)cc2)cc1)C(=O)Cn1cc(CCCCc2cccc(F)c2F)c(=O)c2ccccc21` with Hexose transporter 1 (Plasmodium falciparum) (UniProt O97467)?
Result :: 6.93

Query :: Please look at `Cc1cccc2nc(-c3ccc(-c4ccc(CN5CCN(CCN6CCOCC6)CC5)cc4)s3)[nH]c12` and tell me its recorded inhibition on Hexose transporter 1 (Plasmodium falciparum) (UniProt O97467).
Result :: 3.89

Query :: Give Hexose transporter 1 (Plasmodium falciparum) (UniProt O97467) inhibition for the following compound: N#Cc1ccc2c(c1)CCN(CCC1CCC(NC(=O)/C=C/c3cccc4cc[nH]c34)CC1)CC2 (centres undefined)
Result :: 9.87

Query :: State the measured inhibition (Hexose transporter 1 (Plasmodium falciparum) (UniProt O97467)) of `Cc1cc2c(cc1C(F)(F)F)N(C(=O)Nc1cc(OCCN(C)C)cc(C(F)(F)F)c1)CC2`
Result :: -1.6

Query :: Please indicate recorded inhibition of `N#Cc1ccc(CN2CCCN(c3ccc(NC(=O)c4ccc(F)cc4)cc3)CC2)cc1` measured with Hexose transporter 1 (Plasmodium falciparum) (UniProt O97467).
Result :: 3.32

Query :: Provide inhibition, system Hexose transporter 1 (Plasmodium falciparum) (UniProt O97467), entry `Cc1cc(S(=O)(=O)N2CCCCC(c3ccc(C(F)(F)F)cc3)=N2)c(Cl)cc1Cl`
Result :: 4.02

Query :: Look up and report measured inhibition (Hexose transporter 1 (Plasmodium falciparum) (UniProt O97467)) for the following compound: `O=[N+]([O-])c1cccc(CNCC2CCN(Cc3ccc(O)cc3)CC2)c1`
Result :: 5.62

Query :: # assay system Hexose transporter 1 (Plasmodium falciparum) (UniProt O97467): give inhibition of `CCNc1cc(C(=O)N[C@@H](Cc2ccc(F)c(F)c2)[C@H](O)CNCc2cccc(OC)c2)cc(N2CCCCS2(=O)=O)c1`
Result :: 0.17

Query :: Look up and report inhibition, with Hexose transporter 1 (Plasmodium falciparum) (UniProt O97467) as system, for O=C(CC(c1ccccc1)c1ccccc1O)N1CCOCC1 (centres undefined)
Result :: 1.12

Query :: Quote inhibition with test system Hexose transporter 1 (Plasmodium falciparum) (UniProt O97467) for `CC(C)(C)NC(=O)COC(=O)c1c2c(nc3ccccc13)C(=Cc1ccc3c(c1)OCO3)CCC2`
Result :: 1.17

Query :: Give reported inhibition for `O=C1C(c2ccccc2)=C(Nc2ccc([N+](=O)[O-])cc2)c2ccccc21` (Hexose transporter 1 (Plasmodium falciparum) (UniProt O97467))
Result :: 9.53

Query :: State measured inhibition of the compound C=CCNS(=O)(=O)c1ccc(NC(=O)C(C)Oc2ccc([N+](=O)[O-])cc2)cc1 (centres undefined) with Hexose transporter 1 (Plasmodium falciparum) (UniProt O97467).
Result :: 1.56

Query :: Send back Hexose transporter 1 (Plasmodium falciparum) (UniProt O97467) inhibition of O=C(CCOc1ccccc1)NCC1CCCO1 (centres undefined) only.
Result :: -0.04

Query :: System Hexose transporter 1 (Plasmodium falciparum) (UniProt O97467). Read-out inhibition. Item `O=S(=O)(c1c(Cl)cc(Cl)cc1Cl)N1CCCCC(c2ccc(C(F)(F)F)cc2)=N1` . Report value.
Result :: 8.89

Query :: Answer briefly: inhibition recorded on Hexose transporter 1 (Plasmodium falciparum) (UniProt O97467) for `Fc1ccc(Nc2ccnc3cc(-c4ccc(CNCCN5CCOCC5)o4)ccc23)c(Cl)c1`
Result :: 2.02

Query :: GET inhibition where system = Hexose transporter 1 (Plasmodium falciparum) (UniProt O97467) and item = `COc1cccc(C(=O)NCCc2cccc(Cl)c2)c1Oc1ccccc1`
Result :: 2.48

Query :: GET inhibition | system: Hexose transporter 1 (Plasmodium falciparum) (UniProt O97467) | item: `O=C(Cc1cccc(OCCCN(Cc2cccc(C(F)(F)F)c2Cl)CC(c2ccccc2)c2ccccc2)c1)NCc1ccco1`
Result :: 2.42

Query :: State the measured inhibition (Hexose transporter 1 (Plasmodium falciparum) (UniProt O97467)) of `O=C(Nc1ccc(-c2cccc(-c3nc4ccccc4[nH]3)c2)cc1)Nc1ccc(Cl)c(Cl)c1`
Result :: 0.83

Query :: Using Hexose transporter 1 (Plasmodium falciparum) (UniProt O97467) as the test system, report measured inhibition of `CCOc1ccc2c(=NN=Cc3cccc(F)c3)cc(C)[nH]c2c1` .
Result :: 1.08

Query :: Give Hexose transporter 1 (Plasmodium falciparum) (UniProt O97467) inhibition for the following compound: `Clc1cccc(Cl)c1CCNCC1CCN(CC2CCCCC2)CC1`
Result :: 5.47

Query :: Answer with inhibition of `COc1ccc(CCN(C)CCCOc2ccc(NC(=O)c3cccc4c(=O)c5ccccc5[nH]c34)cc2)cc1OC` measured for Hexose transporter 1 (Plasmodium falciparum) (UniProt O97467).
Result :: 2.58

Query :: Lab note: record inhibition of CCCCC1=CC2C(=O)C(C(=O)OC)=CN=C2C=C1OCc1ccccc1 (centres undefined) tested on Hexose transporter 1 (Plasmodium falciparum) (UniProt O97467).
Result :: -2.57

Query :: Using Hexose transporter 1 (Plasmodium falciparum) (UniProt O97467) as the test system, report measured inhibition of `CN(C)c1ccc(CN2CCC(NC(=O)c3ccc(-c4ccccc4Cl)s3)CC2)cc1` .
Result :: 1.07

Query :: // fetch inhibition for `Cc1ccc2[nH]c(-c3ccccc3)cc(=NN=Cc3cccnc3)c2c1` ; system: Hexose transporter 1 (Plasmodium falciparum) (UniProt O97467)
Result :: 0.03

Query :: Report value only: inhibition, Hexose transporter 1 (Plasmodium falciparum) (UniProt O97467), `Clc1cc(Br)ccc1-c1ccc(CNCC2CCNCC2)o1`
Result :: -0.1

Query :: Find the measured inhibition of `O=C(NCCCCN1CCC(c2ccc3c(c2OCCN2CCCC2=O)CCCC3)CC1)c1ccc(-c2ccc(C(F)(F)F)cc2)cc1` with Hexose transporter 1 (Plasmodium falciparum) (UniProt O97467) as test system.
Result :: 0.75

Value source: ChEMBL document CHEMBL3433997
